Values from patent US20110118131A1

Target: T1, IL-1β (UniProt P01584 117-269)
T1 construct: Antigen immobilised on the Biacore chip
Assay: Biacore, periplasmic extract
fold difference in affinity vs original: recorded values
Your answer should be a plain number; it is taken to be in fold.

// worked examples, fold difference in affinity vs original included
{"binder": "XPA23 light chain N30D (Fab, V domains shown) VH: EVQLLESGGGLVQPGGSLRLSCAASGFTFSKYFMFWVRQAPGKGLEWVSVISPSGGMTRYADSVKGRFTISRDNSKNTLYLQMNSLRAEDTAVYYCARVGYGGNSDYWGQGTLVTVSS VL: DIQMTQSPSSVSASVGDRLTIICRASQDIDRWLAWYQQTPGNAPKLLIHSATSLQSGVPSRFSGSGSGTDFTLTINSLQPEDFATYYCQQADSFPLTFGGGTKVEIK", "fold difference in affinity vs original [fold]": 0.81}
{"binder": "XPA23 light chain R31G (Fab, V domains shown) VH: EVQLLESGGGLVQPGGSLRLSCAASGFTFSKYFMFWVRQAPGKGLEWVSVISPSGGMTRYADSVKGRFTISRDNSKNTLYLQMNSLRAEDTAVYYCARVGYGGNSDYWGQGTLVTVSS VL: DIQMTQSPSSVSASVGDRLTIICRASQDINGWLAWYQQTPGNAPKLLIHSATSLQSGVPSRFSGSGSGTDFTLTINSLQPEDFATYYCQQADSFPLTFGGGTKVEIK", "fold difference in affinity vs original [fold]": 0.92}
{"binder": "XPA23 light chain S93H (Fab, V domains shown) VH: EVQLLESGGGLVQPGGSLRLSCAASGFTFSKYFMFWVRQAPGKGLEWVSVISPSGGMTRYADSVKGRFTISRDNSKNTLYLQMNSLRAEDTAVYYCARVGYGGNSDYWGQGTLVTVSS VL: DIQMTQSPSSVSASVGDRLTIICRASQDINRWLAWYQQTPGNAPKLLIHSATSLQSGVPSRFSGSGSGTDFTLTINSLQPEDFATYYCQQADHFPLTFGGGTKVEIK", "fold difference in affinity vs original [fold]": 1.08}
{"binder": "XPA23 light chain R31A (Fab, V domains shown) VH: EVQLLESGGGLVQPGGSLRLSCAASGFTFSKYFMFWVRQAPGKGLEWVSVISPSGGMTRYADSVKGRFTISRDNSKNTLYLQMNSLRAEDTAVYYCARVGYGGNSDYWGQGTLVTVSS VL: DIQMTQSPSSVSASVGDRLTIICRASQDINAWLAWYQQTPGNAPKLLIHSATSLQSGVPSRFSGSGSGTDFTLTINSLQPEDFATYYCQQADSFPLTFGGGTKVEIK", "fold difference in affinity vs original [fold]": 8.48}

Now, please, on to the next binder.
Inquiry: What measured fold difference in affinity vs original goes with XPA23 light chain H49S (Fab, V domains shown) VH: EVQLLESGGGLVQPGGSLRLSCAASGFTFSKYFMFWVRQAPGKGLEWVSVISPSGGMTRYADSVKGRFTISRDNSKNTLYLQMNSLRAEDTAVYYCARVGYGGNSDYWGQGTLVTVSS VL: DIQMTQSPSSVSASVGDRLTIICRASQDINRWLAWYQQTPGNAPKLLISSATSLQSGVPSRFSGSGSGTDFTLTINSLQPEDFATYYCQQADSFPLTFGGGTKVEIK ?
Reply text: 0.14
